assay: Volume of distribution at steady state in dog at 3 mg/kg, iv; assay type: ADME, organism-based, Canis lupus familiaris; set-up: dose 3 mg/kg, route intravenous; conditions: in vivo, read-out: Vdss
Each entry below lists one item and its recorded Vd value.
Kindly answer with a numeric value in L/kg, unit omitted.

Consider the reported Vd for these molecules:
| Molecule | Units label | Vd |
| --- | --- | --- |
| COc1cc(/C=C2\CCCN3C2=NOC3(C)c2ccc(F)cc2)ccc1-n1cnc(C)c1 (single isomer, unassigned) | L/kg | 2.2 |
| COc1cc(/C=C2\CCCN3C2=NOC[C@@H]3c2cc(F)c(F)c(F)c2)ccc1-n1cnc(C)c1 | L/kg | 0.6 |

Exam item: // returns reported Vd for input COc1cc(/C=C2\CCCN3C2=NO[C@]3(CO)c2ccc(F)cc2)ccc1-n1cnc(C)c1
Marked response: 0.4
